# target_or_system: Bcl-2-related protein A1 (Mus musculus, UniProt Q07440);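 note: confirmatory dose–response counterscreen on Bfl-1, used to check hits from a UBC13 polyubiquitin inhibitor campaign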
# Sequence (Q07440 whole entry): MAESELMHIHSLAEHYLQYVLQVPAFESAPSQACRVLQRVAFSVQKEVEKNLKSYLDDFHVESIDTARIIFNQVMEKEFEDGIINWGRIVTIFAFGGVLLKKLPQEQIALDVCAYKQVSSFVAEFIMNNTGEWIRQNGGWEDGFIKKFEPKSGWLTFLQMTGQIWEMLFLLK
# Assay type: functional
The source made the active and inactive calls.
// allowed return values: TRUE for active, FALSE for inactive

CCc1ccc2nc(N(CCCN(C)C)C(=O)c3ccc(S(=O)(=O)N4CCc5ccccc5C4)cc3)sc2c1	FALSE

Asked: For NC1=NC[C@@H](CC2CCCCC2)N1CCc1cc(C(F)(F)F)cc(C(F)(F)F)c1 , which call appears in the assay record?
Given back: FALSE

Asked: Name the outcome recorded for CCN=C(S)N=Nc1c(O)[nH]c2ccc(C(C)C)cc12 in the assay.
Given back: FALSE

###

# target_or_system: Fatty acid synthase (Homo sapiens, UniProt P49327)
# Sequence (P49327 whole entry): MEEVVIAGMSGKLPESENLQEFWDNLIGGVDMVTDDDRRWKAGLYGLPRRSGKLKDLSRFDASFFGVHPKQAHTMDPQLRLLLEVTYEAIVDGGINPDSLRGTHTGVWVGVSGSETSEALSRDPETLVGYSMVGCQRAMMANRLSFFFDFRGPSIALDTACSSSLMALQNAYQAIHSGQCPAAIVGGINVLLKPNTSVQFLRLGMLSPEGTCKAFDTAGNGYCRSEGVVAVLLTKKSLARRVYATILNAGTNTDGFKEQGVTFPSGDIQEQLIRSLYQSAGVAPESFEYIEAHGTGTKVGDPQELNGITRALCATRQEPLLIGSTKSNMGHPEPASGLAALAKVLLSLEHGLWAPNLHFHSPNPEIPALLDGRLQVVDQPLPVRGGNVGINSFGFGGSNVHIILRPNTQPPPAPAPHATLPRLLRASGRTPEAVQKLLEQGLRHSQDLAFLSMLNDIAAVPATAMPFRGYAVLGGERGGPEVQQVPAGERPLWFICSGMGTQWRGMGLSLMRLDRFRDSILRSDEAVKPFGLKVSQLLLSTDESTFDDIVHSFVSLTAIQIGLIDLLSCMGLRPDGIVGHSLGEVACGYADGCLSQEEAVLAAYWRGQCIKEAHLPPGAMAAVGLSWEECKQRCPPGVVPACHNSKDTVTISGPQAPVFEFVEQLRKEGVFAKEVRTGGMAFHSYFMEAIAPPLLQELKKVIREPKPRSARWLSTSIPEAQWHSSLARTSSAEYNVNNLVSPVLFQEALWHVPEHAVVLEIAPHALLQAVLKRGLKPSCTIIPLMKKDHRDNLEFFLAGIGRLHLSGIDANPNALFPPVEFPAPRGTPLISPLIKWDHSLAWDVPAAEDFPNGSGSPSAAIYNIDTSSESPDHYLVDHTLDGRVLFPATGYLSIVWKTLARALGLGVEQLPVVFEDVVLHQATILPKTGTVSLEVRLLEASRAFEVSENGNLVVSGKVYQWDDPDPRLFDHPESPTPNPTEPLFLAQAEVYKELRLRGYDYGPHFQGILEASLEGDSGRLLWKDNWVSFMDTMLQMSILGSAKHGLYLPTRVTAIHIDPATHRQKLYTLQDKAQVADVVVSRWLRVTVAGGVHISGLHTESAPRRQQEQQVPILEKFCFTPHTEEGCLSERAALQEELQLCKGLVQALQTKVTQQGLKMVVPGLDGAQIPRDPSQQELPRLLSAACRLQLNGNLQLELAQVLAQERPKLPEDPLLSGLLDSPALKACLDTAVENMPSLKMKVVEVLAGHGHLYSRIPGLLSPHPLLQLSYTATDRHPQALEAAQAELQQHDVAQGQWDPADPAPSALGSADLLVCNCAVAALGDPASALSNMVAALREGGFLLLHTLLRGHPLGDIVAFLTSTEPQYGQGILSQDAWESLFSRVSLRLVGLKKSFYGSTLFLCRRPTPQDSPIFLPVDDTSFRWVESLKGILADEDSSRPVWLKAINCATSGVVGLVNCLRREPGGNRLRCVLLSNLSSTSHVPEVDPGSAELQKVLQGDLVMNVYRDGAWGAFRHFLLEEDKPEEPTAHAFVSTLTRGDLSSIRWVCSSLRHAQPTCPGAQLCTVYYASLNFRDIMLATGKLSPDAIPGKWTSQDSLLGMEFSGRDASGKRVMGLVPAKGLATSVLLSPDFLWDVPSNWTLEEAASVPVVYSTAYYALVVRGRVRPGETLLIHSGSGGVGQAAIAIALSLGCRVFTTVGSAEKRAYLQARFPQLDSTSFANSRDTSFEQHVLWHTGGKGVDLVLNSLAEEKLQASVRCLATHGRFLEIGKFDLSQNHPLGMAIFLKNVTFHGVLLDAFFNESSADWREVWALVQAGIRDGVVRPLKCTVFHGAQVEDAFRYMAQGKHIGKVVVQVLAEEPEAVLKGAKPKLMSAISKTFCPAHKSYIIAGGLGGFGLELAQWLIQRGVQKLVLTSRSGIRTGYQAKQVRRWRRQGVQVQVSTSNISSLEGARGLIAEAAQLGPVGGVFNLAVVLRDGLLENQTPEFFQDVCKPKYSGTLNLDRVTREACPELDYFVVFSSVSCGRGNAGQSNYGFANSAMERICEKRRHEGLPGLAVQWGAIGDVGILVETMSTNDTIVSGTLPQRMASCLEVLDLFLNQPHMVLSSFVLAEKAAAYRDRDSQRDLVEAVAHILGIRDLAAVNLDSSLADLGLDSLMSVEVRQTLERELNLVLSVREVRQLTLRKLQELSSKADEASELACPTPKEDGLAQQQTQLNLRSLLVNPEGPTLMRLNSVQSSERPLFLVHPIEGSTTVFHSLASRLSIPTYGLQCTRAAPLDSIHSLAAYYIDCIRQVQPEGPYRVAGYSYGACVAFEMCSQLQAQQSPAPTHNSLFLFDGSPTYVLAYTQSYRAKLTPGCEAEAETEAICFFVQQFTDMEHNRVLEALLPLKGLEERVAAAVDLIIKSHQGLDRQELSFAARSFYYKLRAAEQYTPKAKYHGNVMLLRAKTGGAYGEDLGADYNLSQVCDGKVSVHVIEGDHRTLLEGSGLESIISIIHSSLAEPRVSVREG
# assay_explanation: inhibition of human FAS-TE enzyme activity – biochemical, endpoint fluorescence intensity, uHTS hits, dose response (AID 624327);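 note: fluorescence from hydrolysis of an O-methyl fluorescein acyl ester substrate by the enzyme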
# Assay type: functional
Calls of active or inactive are those of the source.
attribute_measured: IC50

Example cases with answers are listed next.
Cc1cc([N+](=O)[O-])nn1CC(=O)N/N=C/c1ccccc1Br	10.3 µM (active)
COc1cccc(CNC(=O)COC(=O)c2cc([N+](=O)[O-])ccc2N2CCCC2)c1	3.18 µM (active)
Cc1csc(N(C(=O)CCNC(=O)c2ccc([N+](=O)[O-])cc2)c2ccccc2)n1	5.73 µM (active)

// for each molecule in input: emit IC50
1. CC(C)(C)c1ccc(C(=O)NCC(=O)OCc2ccc([N+](=O)[O-])cc2)cc1
2. CC(=O)N1CCN(c2ccccc2NC(=O)c2ccc(-c3cccc([N+](=O)[O-])c3)o2)CC1
3. COC(=O)c1cc(C(=O)Nc2nnc(C3CC3)s2)cc([N+](=O)[O-])c1

Given back:
1. 2.66 µM (active)
2. 8.81 µM (active)
3. 9.7 µM (active)

###

# target_or_system: UniProt:P08659
# Sequence (P08659 whole entry): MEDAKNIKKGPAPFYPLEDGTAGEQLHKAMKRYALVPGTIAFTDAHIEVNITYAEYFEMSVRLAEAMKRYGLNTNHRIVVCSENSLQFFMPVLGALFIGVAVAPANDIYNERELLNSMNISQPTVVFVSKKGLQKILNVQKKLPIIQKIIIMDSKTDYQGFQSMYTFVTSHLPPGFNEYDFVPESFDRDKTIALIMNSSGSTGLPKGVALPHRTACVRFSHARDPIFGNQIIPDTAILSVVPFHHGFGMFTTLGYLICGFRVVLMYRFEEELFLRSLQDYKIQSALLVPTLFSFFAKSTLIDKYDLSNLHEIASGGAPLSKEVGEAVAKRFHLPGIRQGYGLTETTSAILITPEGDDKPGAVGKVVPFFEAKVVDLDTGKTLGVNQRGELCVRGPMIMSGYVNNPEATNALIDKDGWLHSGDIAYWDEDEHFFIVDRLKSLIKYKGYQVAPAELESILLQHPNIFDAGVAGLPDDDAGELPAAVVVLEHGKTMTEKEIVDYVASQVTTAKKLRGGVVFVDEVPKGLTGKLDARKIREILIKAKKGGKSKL
# assay_explanation: inhibition of purified Photinus pyralis luciferase – biochemical, luminescence, dose response (AID 1891)
Activity calls are given as the source filed them.
attribute_measured: EC50

Batch of 6 compounds: report EC50 for each.
1. O=C(/C=C\Nc1ccc2c(c1)OCO2)c1cccs1
2. Cc1ccc(CNC(=O)C2CCCN(c3nn4c(=O)cc(C)nc4s3)C2)cc1 (stereo not drawn)
3. O=C(Nc1cccc(O)c1)C(=O)Nc1ccccn1
4. N/N=C(\Cc1cscn1)c1ccc(O)cc1O
5. Clc1nc2ncnc-2c[nH]1
6. O=C(CC1(O)C(=O)Nc2ccccc21)c1ccccc1 (stereo not drawn)

Given back:
1. 0.912 µM (active)
2. > 112 µM (not active)
3. 7.77 µM (active)
4. > 112 µM (not active)
5. > 112 µM (not active)
6. > 112 µM (not active)

For every record below, what is its EC50?
1. COC(=O)COc1ccc(S(=O)(=O)NCc2cccnc2)cc1C
2. COc1ccccc1NC(=O)Cc1c(F)cccc1Cl
3. O=C(c1ccco1)N1CCN(C(=O)c2ccc(COc3ccc(F)cc3)o2)CC1

Given back:
["> 112 µM (not active)", "> 112 µM (not active)", "> 112 µM (not active)"]

Provide the reported EC50 of each entry below, same order.
1. COc1ccc(Br)cc1/C=N/n1c(C)nnc1C
2. CSc1ccccc1C(=O)Nc1ncc(C)s1

Given back:
1. > 112 µM (not active)
2. > 112 µM (not active)

Consider the following items and state reported EC50 for each.
1. O=[N+]([O-])c1ccc(N=Nc2ccc(O)cc2O)cc1
2. COc1cccc(-c2nc3ccc(O)cc3c(=O)o2)c1

Given back:
1.05 µM (active)
5.39 µM (active)
